Numbers sourced from ChEMBL document CHEMBL1255207.

target: Vascular endothelial growth factor receptor 2 (Homo sapiens)
Sequence (P35968 whole entry): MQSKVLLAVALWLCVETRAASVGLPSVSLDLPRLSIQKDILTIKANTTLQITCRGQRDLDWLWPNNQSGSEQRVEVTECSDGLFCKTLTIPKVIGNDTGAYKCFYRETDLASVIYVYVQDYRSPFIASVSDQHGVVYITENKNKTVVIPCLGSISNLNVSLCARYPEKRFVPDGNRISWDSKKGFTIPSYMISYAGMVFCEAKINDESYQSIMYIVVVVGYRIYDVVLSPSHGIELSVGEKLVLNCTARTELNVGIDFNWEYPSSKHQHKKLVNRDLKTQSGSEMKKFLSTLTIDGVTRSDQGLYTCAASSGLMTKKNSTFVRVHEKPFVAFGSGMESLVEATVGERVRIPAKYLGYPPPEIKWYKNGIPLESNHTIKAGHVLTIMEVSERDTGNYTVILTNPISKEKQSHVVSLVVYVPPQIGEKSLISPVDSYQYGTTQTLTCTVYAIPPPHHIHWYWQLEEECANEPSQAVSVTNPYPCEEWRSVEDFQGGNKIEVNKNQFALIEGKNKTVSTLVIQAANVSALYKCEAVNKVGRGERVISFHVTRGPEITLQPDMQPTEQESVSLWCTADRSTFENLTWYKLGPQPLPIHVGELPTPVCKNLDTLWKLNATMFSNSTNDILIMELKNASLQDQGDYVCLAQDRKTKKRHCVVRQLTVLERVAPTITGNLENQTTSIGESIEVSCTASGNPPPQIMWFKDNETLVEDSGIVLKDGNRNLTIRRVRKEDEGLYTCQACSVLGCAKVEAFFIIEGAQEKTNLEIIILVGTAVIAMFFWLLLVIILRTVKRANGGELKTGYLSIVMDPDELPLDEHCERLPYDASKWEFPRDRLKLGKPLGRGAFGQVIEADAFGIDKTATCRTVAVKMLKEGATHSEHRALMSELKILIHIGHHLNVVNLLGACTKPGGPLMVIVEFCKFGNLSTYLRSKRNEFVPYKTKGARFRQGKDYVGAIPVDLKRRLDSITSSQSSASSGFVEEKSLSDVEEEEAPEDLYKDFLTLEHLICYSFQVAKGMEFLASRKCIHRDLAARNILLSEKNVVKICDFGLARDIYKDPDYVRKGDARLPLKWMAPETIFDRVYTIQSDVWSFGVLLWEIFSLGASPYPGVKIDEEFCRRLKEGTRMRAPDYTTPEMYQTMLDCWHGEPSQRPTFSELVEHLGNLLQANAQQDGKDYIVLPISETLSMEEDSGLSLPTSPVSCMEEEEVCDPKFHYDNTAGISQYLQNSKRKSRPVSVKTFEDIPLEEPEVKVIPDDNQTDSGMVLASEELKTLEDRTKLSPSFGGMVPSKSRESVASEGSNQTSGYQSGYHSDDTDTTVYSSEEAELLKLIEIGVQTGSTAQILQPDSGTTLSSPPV

[
  {
    "SMILES_REPR": "Nc1ccc2c(c1)C(c1ccccc1Cl)=Nc1c[nH]nc1N2",
    "TARGET_ENTITY": "Vascular endothelial growth factor receptor 2 (Homo sapiens)",
    "IC50 (nM)": 34
  },
  {
    "SMILES_REPR": "Cc1[nH]nc2c1N=C(c1ccccc1Cl)c1cc([N+](=O)[O-])ccc1N2",
    "TARGET_ENTITY": "Vascular endothelial growth factor receptor 2 (Homo sapiens)",
    "IC50 (nM)": 72
  },
  {
    "SMILES_REPR": "N#Cc1ccc2c(c1)C(c1ccccc1F)=Nc1c[nH]nc1N2",
    "TARGET_ENTITY": "Vascular endothelial growth factor receptor 2 (Homo sapiens)",
    "IC50 (nM)": 39
  }
]

----------
# Epidermal growth factor receptor (Homo sapiens, UniProt P00533): pIC50 values follow
# Sequence (P00533 whole entry): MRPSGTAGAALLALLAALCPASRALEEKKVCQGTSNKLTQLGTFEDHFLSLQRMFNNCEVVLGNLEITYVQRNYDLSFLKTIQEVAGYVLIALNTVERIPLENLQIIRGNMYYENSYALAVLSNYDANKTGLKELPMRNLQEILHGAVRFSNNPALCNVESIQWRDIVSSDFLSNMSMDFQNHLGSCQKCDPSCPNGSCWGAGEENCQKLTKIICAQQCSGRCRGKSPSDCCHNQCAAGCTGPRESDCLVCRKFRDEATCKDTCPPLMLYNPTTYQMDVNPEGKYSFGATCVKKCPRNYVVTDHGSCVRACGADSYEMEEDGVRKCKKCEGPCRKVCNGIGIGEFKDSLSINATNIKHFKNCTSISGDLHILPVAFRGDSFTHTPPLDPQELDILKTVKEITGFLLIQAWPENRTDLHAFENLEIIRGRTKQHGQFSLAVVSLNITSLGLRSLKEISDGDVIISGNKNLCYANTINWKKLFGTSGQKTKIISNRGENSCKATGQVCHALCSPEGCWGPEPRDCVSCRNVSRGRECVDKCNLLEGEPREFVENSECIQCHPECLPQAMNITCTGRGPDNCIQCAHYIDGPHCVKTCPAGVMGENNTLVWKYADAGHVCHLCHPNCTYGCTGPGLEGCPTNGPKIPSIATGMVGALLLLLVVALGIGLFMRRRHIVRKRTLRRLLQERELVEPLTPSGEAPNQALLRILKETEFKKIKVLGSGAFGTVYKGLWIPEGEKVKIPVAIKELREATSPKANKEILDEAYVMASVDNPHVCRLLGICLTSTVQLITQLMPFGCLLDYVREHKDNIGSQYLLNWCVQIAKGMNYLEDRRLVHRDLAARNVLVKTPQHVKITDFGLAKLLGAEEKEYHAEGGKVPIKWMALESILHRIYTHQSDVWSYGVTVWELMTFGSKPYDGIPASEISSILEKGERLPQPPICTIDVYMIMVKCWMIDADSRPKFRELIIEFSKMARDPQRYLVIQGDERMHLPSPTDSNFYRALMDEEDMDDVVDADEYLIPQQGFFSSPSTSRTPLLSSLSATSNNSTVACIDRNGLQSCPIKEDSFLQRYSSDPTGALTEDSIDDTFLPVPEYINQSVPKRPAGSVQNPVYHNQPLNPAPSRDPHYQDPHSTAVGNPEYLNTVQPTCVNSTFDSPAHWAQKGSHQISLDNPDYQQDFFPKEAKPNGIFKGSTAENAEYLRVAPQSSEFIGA
pIC50: −log10 of the molar value.

[
  {
    "SMILES_REPR": "N#Cc1ccc2c(c1)C(c1ccccc1F)=Nc1c[nH]nc1N2",
    "pIC50": 4.96
  },
  {
    "SMILES_REPR": "Nc1ccc2c(c1)C(c1ccccc1Cl)=Nc1c[nH]nc1N2",
    "pIC50": 6.00
  },
  {
    "SMILES_REPR": "CC(=O)Nc1ccc2c(c1)C(c1ccccc1Cl)=Nc1c[nH]nc1N2",
    "pIC50": 6.14
  }
]

----------
experiment: Inhibition of FGFR
pIC50: −log10 of the molar value.

[
  {
    "SMILES_REPR": "Cc1[nH]nc2c1N=C(c1ccccc1Cl)c1cc([N+](=O)[O-])ccc1N2",
    "pIC50": 7.00
  },
  {
    "SMILES_REPR": "Nc1ccc2c(c1)C(c1ccccc1Cl)=Nc1c[nH]nc1N2",
    "pIC50": 7.30
  },
  {
    "SMILES_REPR": "N#Cc1ccc2c(c1)C(c1ccccc1F)=Nc1c[nH]nc1N2",
    "pIC50": 7.17
  },
  {
    "SMILES_REPR": "CC(=O)Nc1ccc2c(c1)C(c1ccccc1Cl)=Nc1c[nH]nc1N2",
    "pIC50": 7.35
  }
]

----------
molecular target: CDK4-cyclin D1 (Homo sapiens); assay: Inhibition of CDK4-cyclin D1
pIC50: −log10 of the molar value.
// reported pIC50 per item
RESULT_TYPE: pIC50

[
  {
    "SMILES_REPR": "Nc1n[nH]c2nc(-c3cccs3)cc(C(F)(F)F)c12",
    "LIMIT_QUALIFIER": "<",
    "EXPERIMENTAL_VALUE": 4.52
  },
  {
    "SMILES_REPR": "O=[N+]([O-])c1ccc2c(c1)C(c1ccccc1Cl)=Nc1c[nH]nc1N2",
    "LIMIT_QUALIFIER": "=",
    "EXPERIMENTAL_VALUE": 5.00
  }
]

----------
# UniProt P12931: IC50 values follow
# Sequence (P12931 2-536 limits assumed): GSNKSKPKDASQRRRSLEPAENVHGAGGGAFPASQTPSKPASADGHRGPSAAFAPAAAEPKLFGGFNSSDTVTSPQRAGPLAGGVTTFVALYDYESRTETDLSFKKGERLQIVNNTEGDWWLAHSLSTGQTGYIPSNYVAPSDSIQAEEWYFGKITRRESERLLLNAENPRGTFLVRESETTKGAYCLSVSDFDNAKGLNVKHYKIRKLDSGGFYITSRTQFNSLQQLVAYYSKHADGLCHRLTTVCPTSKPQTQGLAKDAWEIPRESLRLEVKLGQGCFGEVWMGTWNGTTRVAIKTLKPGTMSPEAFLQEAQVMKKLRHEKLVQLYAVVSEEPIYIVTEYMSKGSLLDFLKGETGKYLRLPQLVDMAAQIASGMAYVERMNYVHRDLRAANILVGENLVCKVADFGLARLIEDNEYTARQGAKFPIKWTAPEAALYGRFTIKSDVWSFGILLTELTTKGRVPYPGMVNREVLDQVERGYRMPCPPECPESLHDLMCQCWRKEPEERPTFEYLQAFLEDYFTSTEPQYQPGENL

[
  {
    "SMILES_REPR": "Nc1ccc2c(c1)C(c1ccccc1Cl)=Nc1c[nH]nc1N2",
    "TARGET_ENTITY": "UniProt P12931",
    "READING_UNIT": "nM",
    "LIMIT_QUALIFIER": "=",
    "IC50": 1840
  },
  {
    "SMILES_REPR": "Cc1[nH]nc2c1N=C(c1ccccc1Cl)c1cc([N+](=O)[O-])ccc1N2",
    "TARGET_ENTITY": "UniProt P12931",
    "READING_UNIT": "nM",
    "LIMIT_QUALIFIER": ">",
    "IC50": 60000
  },
  {
    "SMILES_REPR": "CC(=O)Nc1ccc2c(c1)C(c1ccccc1Cl)=Nc1c[nH]nc1N2",
    "TARGET_ENTITY": "UniProt P12931",
    "READING_UNIT": "nM",
    "LIMIT_QUALIFIER": "=",
    "IC50": 930
  },
  {
    "SMILES_REPR": "N#Cc1ccc2c(c1)C(c1ccccc1F)=Nc1c[nH]nc1N2",
    "TARGET_ENTITY": "UniProt P12931",
    "READING_UNIT": "nM",
    "LIMIT_QUALIFIER": "=",
    "IC50": 5400
  }
]

----------
// reported pIC50 per item
target: Cyclin-dependent kinase 2/cyclin E (Homo sapiens, UniProt P24941); assay: Inhibition of CDK2-cyclin E
pIC50: −log10 of the molar value.

[
  {
    "SMILES_REPR": "CC(=O)Nc1ccc2c(c1)C(c1ccccc1Cl)=Nc1c[nH]nc1N2",
    "pIC50": 7.42
  },
  {
    "SMILES_REPR": "Cc1[nH]nc2c1N=C(c1ccccc1Cl)c1cc([N+](=O)[O-])ccc1N2",
    "pIC50": 7.46
  },
  {
    "SMILES_REPR": "Cc1[nH]nc2c1N=C(c1ccccc1)c1cc(F)ccc1N2",
    "pIC50": 7.03
  },
  {
    "SMILES_REPR": "O=[N+]([O-])c1ccc2c(c1)C(c1ccccc1Cl)=Nc1c(n[nH]c1CO)N2",
    "pIC50": 6.62
  },
  {
    "SMILES_REPR": "Cc1[nH]nc2c1N=C(c1ccccc1Cl)c1ccccc1N2",
    "pIC50": 6.98
  },
  {
    "SMILES_REPR": "Cc1[nH]nc2c1N=C(c1ccccc1)c1ccccc1N2",
    "pIC50": 6.94
  },
  {
    "SMILES_REPR": "O=[N+]([O-])c1ccc2c(c1)C(c1ccccc1Cl)=Nc1c(n[nH]c1CCc1ccccc1)N2",
    "pIC50": 5.30
  },
  {
    "SMILES_REPR": "O=[N+]([O-])c1ccc2c(c1)C(c1ccccc1Cl)=Nc1c(n[nH]c1-c1ccncc1)N2",
    "pIC50": 7.30
  },
  {
    "SMILES_REPR": "O=[N+]([O-])c1ccc2c(c1)C(c1ccccc1Cl)=Nc1c(n[nH]c1C(F)(F)F)N2",
    "pIC50": 6.63
  },
  {
    "SMILES_REPR": "O=[N+]([O-])c1ccc2c(c1)C(c1ccccc1Cl)=Nc1c(n[nH]c1-c1ccc[nH]1)N2",
    "pIC50": 7.70
  },
  {
    "SMILES_REPR": "Nc1ccc2c(c1)C(c1ccccc1Cl)=Nc1c[nH]nc1N2",
    "pIC50": 7.06
  },
  {
    "SMILES_REPR": "O=[N+]([O-])c1ccc2c(c1)C(c1ccccc1Cl)=Nc1c(n[nH]c1-c1cccnc1)N2",
    "pIC50": 6.52
  },
  {
    "SMILES_REPR": "CC(C)c1[nH]nc2c1N=C(c1ccccc1Cl)c1cc([N+](=O)[O-])ccc1N2",
    "pIC50": 8.00
  },
  {
    "SMILES_REPR": "O=[N+]([O-])c1ccc2c(c1)C(c1ccccc1Cl)=Nc1c[nH]nc1N2",
    "pIC50": 7.15
  },
  {
    "SMILES_REPR": "O=[N+]([O-])c1ccc2c(c1)C(c1ccccc1Cl)=Nc1c(n[nH]c1-c1ccccc1)N2",
    "pIC50": 6.68
  },
  {
    "SMILES_REPR": "Cc1[nH]nc2c1N=C(c1ccccc1F)c1ccccc1N2",
    "pIC50": 7.19
  },
  {
    "SMILES_REPR": "NC(=O)c1[nH]nc2c1N=C(c1ccccc1Cl)c1cc([N+](=O)[O-])ccc1N2",
    "pIC50": 6.59
  },
  {
    "SMILES_REPR": "Cc1[nH]nc2c1N=C(c1ccccc1F)c1cc(F)ccc1N2",
    "pIC50": 7.40
  },
  {
    "SMILES_REPR": "N#Cc1ccc2c(c1)C(c1ccccc1F)=Nc1c[nH]nc1N2",
    "pIC50": 7.80
  },
  {
    "SMILES_REPR": "Nc1n[nH]c2nc(-c3cccs3)cc(C(F)(F)F)c12",
    "pIC50": 5.70
  }
]

----------
target: Focal adhesion kinase 1 (Homo sapiens)
Sequence (Q05397 whole entry): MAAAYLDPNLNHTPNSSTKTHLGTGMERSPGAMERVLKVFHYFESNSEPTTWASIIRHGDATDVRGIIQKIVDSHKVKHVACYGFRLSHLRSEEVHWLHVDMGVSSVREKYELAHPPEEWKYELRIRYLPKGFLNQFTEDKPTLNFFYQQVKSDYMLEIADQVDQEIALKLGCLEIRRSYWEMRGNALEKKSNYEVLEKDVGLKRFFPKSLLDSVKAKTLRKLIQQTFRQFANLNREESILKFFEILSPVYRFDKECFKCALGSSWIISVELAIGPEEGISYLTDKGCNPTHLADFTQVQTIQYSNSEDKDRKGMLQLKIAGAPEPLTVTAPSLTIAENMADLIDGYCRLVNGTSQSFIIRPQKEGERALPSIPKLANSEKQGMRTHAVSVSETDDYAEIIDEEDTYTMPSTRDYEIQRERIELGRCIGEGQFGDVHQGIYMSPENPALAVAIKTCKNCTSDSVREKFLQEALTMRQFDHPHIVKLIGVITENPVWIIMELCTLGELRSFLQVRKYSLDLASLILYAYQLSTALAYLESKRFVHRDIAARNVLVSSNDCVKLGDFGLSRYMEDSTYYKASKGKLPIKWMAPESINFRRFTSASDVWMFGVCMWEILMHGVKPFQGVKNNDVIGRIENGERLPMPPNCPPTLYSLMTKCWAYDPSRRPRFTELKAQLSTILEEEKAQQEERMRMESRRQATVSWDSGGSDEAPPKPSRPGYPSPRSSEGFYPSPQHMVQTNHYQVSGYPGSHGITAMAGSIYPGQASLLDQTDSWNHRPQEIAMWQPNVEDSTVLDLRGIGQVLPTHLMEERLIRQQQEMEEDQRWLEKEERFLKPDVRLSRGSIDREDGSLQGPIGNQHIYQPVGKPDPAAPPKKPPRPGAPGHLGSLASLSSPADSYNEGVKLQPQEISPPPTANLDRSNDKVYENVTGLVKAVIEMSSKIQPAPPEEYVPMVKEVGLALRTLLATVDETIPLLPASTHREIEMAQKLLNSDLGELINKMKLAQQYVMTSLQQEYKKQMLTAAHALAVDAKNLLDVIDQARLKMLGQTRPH
// reported IC50 per item
RESULT_TYPE: IC50

[
  {
    "SMILES_REPR": "Nc1ccc2c(c1)C(c1ccccc1Cl)=Nc1c[nH]nc1N2",
    "EXPERIMENTAL_VALUE": "150 nM"
  },
  {
    "SMILES_REPR": "N#Cc1ccc2c(c1)C(c1ccccc1F)=Nc1c[nH]nc1N2",
    "EXPERIMENTAL_VALUE": "1200 nM"
  },
  {
    "SMILES_REPR": "CC(=O)Nc1ccc2c(c1)C(c1ccccc1Cl)=Nc1c[nH]nc1N2",
    "EXPERIMENTAL_VALUE": "180 nM"
  }
]
